Let's look at some compounds and their measured melting point.

// below: answered compounds
Compound: COc1cc(O)c(C(=O)/C=C/c2ccnc3ccccc23)cc1C1OC(CO)C(O)C(O)C1O (stereo not shown) [Compound 14]
melting point: 226 to 228 °C
//
Compound: COc1cc(O)c(C(=O)CCc2ccc3occc3c2)cc1C1OC(CO)C(O)C(O)C1O (stereo not shown) [Compound 22]
melting point: 226 to 228 °C
//
Compound: COc1cc(O)c(C(=O)/C=C/c2ccc3occc3c2)cc1C1OC(COS(=O)(=O)O)C(O)C(O)C1O (stereo not shown) [Compound 44]
melting point: 177 to 179 °C
//
Compound: O=C(CCc1ccc(O)cc1)c1c(O)cc(O)cc1CC1OC(CO)C(O)C(O)C1O (stereo not shown) [Compound 54]
melting point: 227 to 228 °C
//
Compound: COC(=O)OCC1OC(Cc2cc(O)cc(O)c2C(=O)CCc2ccc(O)cc2)C(O)C(O)C1O (stereo not shown) [Compound 58]
melting point: 199 to 201 °C
//
Compound: COc1cc(O)c(C(=O)/C=C/c2ccc3occc3c2)cc1C1OC(COC(=O)CCC(=O)O)C(O)C(O)C1O (stereo not shown) [Compound 42]
melting point: 71 to 73 °C

Provide measured melting point value, entry: COc1cc(O)c(C(=O)CCc2ccc3occc3c2)cc1C1OC(COC(=O)CCC(=O)O)C(O)C(O)C1O (stereo not shown) [Compound 47]
113 to 114 °C

Return melting point (reported value) for this compound: COc1cc(O)c(C(=O)CCc2ccc3occc3c2)c(OC)c1C1OC(CO)C(O)C(O)C1O (stereo not shown) [Compound 29]
131 to 132 °C

Return the recorded melting point value; entry: COc1cc(O)c(C(=O)CCc2ccc3occc3c2)cc1C1OC(COC(=O)CCC(=O)[O-])C(O)C(O)C1O.[Na+] (stereo not shown) [Compound 48]
262 °C

----------
Catalogue of compounds with associated melting point

Consider the compound CCOc1cc(OCC)c(C2OC(CO)C(O)C(O)C2O)cc1C(=O)CCc1ccc2occc2c1 (stereo not drawn) . State its measured melting point.
89 to 90 °C

Look up melting point of COc1cc(OC)c(C2OC(CO)C(O)C(O)C2O)cc1C(=O)/C=C/c1ccc2occc2c1 (stereo not drawn) and report it.
226 to 228 °C

Give melting point for the following compound: COc1cc(O)c(C(=O)CCc2ccc3c(c2)CCC3)cc1C1OC(CO)C(O)C(O)C1O (stereo not drawn)
194 to 196 °C

Name the recorded melting point of the item COc1cc(C)c(C(=O)CCc2ccc3occc3c2)cc1C1OC(CO)C(O)C(O)C1O (stereo not drawn) in your answer.
118 to 119 °C

For the compound COc1cc(O)c(C(=O)/C=C/c2ccc3c(c2)CCO3)cc1C1OC(CO)C(O)C(O)C1O (stereo not drawn) , report melting point.
276 to 279 °C

Give the measured melting point for COc1cc(O)c(C(=O)/C=C/c2cc3ccccc3o2)cc1C1OC(CO)C(O)C(O)C1O (stereo not drawn)
256 to 257 °C

----------
Documented melting point across a set of compounds

Compound: Cc1cc(O)c(C(=O)CCc2ccc3occc3c2)c(CC2OC(CO)C(O)C(O)C2O)c1 (stereo not shown)
melting point: 85 to 87 °C
--
Compound: COc1cc(O)c(C(=O)/C=C/c2ccncc2)cc1C1OC(CO)C(O)C(O)C1O (stereo not shown)
melting point: 183 to 185 °C

Indicate its recorded melting point; the compound in question is COc1cc(O)c(C(=O)/C=C/c2ccc3occc3c2)c(OC)c1C1OC(CO)C(O)C(O)C1O (stereo not shown)
198 to 199 °C

Please give the documented melting point of CCOc1cc(O)c(C(=O)/C=C/c2ccc3occc3c2)cc1C1OC(CO)C(O)C(O)C1O (stereo not shown)
189 to 190 °C

Please give measured melting point of the following entry: COc1cc(O)c(C(=O)/C=C/c2ccc3occc3c2)cc1[C@@H]1O[C@H](CO)[C@@H](O)[C@H](O)[C@H]1O
> 250 °C

Using the record for Cc1cc(O)c(C(=O)/C=C/c2ccc3occc3c2)cc1C1OC(CO)C(O)C(O)C1O (stereo not shown) , state its measured melting point.
228 to 229 °C

Give me measured melting point, please, for this compound: COc1cc(O)c(C(=O)/C=C/c2ccc3occc3c2)cc1C1OC(C(=O)[O-])C(O)C(O)C1O.[Na+] (stereo not shown)
115 to 117 °C

Specify measured melting point for COC(=O)OCC1OC(Cc2cc(C)cc(O)c2C(=O)CCc2ccc3occc3c2)C(O)C(O)C1O (stereo not shown) .
58 to 60 °C

Answer with reported melting point of Cc1cc(O)c(C(=O)CCc2ccc3occc3c2)cc1C1OC(CO)C(O)C(O)C1O (stereo not shown)
191 to 192 °C

Tell me measured melting point for COc1cc(OC)c(C2OC(CO)C(O)C(O)C2O)cc1C(=O)CCc1ccc2occc2c1 (stereo not shown) please.
112 to 113 °C

Kindly indicate its recorded melting point. Item: COc1cc(C)cc(CC2OC(CO)C(O)C(O)C2O)c1C(=O)/C=C/c1ccc2occc2c1 (stereo not shown) [Compound 55]
80 to 83 °C

Identify melting point associated with the compound COc1cc(O)c(C(=O)/C=C/c2ccc3occc3c2)c(CC2OC(CO)C(O)C(O)C2O)c1 (stereo not shown)
135 to 136 °C

Identify measured melting point corresponding to COc1cc(O)c(C(=O)CCc2ccc3occc3c2)c(C[C@@H]2O[C@H](CO)[C@@H](O)[C@H](O)[C@H]2O)c1
103 to 105 °C

Quote melting point reported for CCOc1cc(O)c(C(=O)CCc2ccc3occc3c2)cc1C1OC(CO)C(O)C(O)C1O (stereo not shown) please.
175 to 176 °C
